biological target: HRgpA-6H (Porphyromonas gingivalis) (UniProt P28784); test: ELISA, FASEBA screening, coated HRgpA-6H 0.0625 ug/ml
Task for the reader: assign each of the following binders its reported OD450 nm.
Give bare numbers.

binder	OD450 nm
KB001 parental mouse Fab FASEBA variant VH S65P (Fab, V domains shown) VH: EVQLKQSGPGLVAPSQSLSITCTVSGFSLSIYSVHWVRQPPGKGLEWLGMIWGGGSSDYNSALKPRLSISKDNSKSQVFLKMNSLQTDDTAMYYCARNGNFYAMDYWGQGTSVTVSS VL: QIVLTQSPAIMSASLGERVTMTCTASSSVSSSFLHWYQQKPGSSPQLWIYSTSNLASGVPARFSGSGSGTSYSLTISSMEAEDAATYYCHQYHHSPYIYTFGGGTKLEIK	0.814
KB001 parental mouse Fab FASEBA variant VH N100R (Fab, V domains shown) VH: EVQLKQSGPGLVAPSQSLSITCTVSGFSLSIYSVHWVRQPPGKGLEWLGMIWGGGSSDYNSALKSRLSISKDNSKSQVFLKMNSLQTDDTAMYYCARNGRFYAMDYWGQGTSVTVSS VL: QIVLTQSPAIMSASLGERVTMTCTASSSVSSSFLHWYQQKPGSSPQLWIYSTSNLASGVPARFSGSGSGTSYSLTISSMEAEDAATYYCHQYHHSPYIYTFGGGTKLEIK	0.788
KB001 parental mouse Fab FASEBA variant VH N100E (Fab, V domains shown) VH: EVQLKQSGPGLVAPSQSLSITCTVSGFSLSIYSVHWVRQPPGKGLEWLGMIWGGGSSDYNSALKSRLSISKDNSKSQVFLKMNSLQTDDTAMYYCARNGEFYAMDYWGQGTSVTVSS VL: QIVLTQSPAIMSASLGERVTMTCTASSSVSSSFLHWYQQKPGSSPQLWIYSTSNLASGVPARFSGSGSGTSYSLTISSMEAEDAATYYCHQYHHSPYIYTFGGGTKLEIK	0.823
KB001 parental mouse Fab FASEBA variant VH F101M (Fab, V domains shown) VH: EVQLKQSGPGLVAPSQSLSITCTVSGFSLSIYSVHWVRQPPGKGLEWLGMIWGGGSSDYNSALKSRLSISKDNSKSQVFLKMNSLQTDDTAMYYCARNGNMYAMDYWGQGTSVTVSS VL: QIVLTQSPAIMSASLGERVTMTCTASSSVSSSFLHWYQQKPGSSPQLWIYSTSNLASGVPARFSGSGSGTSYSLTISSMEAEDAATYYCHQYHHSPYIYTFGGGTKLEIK	0.755

For KB001 parental mouse Fab FASEBA variant VH A103L (Fab, V domains shown) VH: EVQLKQSGPGLVAPSQSLSITCTVSGFSLSIYSVHWVRQPPGKGLEWLGMIWGGGSSDYNSALKSRLSISKDNSKSQVFLKMNSLQTDDTAMYYCARNGNFYLMDYWGQGTSVTVSS VL: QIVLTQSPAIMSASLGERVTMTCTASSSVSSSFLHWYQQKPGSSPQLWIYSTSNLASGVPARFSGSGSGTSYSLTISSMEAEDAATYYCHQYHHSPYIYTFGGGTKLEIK , what is its reported OD450 nm?
0.783
